Assay: Raf kinase enzymatic assay (HTRF)
Settings: BRAF V600E (416-766); ATP at KM
Where a name gives a salt, the structure may show the parent alone.
observable: IC50 (nM)
Respond numerically; units are nM and should not be typed.

Ask: What value of measured IC50 is listed for O=C1CCc2c(Oc3ccc4c(c3)[C@@H]3[C@H](O4)[C@H]3c3nc4ccc(C(F)(F)F)cc4[nH]3)ccnc2N1 [sesqui-maleate salt] ?
Reply: 26

====

Target sequence: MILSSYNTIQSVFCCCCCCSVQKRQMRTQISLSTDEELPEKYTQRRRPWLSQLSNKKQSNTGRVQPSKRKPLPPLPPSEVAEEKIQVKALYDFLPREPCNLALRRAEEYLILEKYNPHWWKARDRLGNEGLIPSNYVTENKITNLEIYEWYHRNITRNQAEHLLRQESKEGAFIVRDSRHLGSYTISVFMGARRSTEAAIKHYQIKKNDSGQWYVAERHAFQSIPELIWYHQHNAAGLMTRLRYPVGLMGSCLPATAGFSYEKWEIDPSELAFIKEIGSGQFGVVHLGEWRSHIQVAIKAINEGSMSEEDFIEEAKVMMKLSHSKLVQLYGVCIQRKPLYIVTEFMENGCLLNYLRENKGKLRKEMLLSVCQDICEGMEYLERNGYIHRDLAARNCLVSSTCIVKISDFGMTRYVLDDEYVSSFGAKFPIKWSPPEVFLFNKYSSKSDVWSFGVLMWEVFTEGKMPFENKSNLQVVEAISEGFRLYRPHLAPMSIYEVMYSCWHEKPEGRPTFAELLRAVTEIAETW
Where a name gives a salt, the structure may show the parent alone.
observable: IC50 (µM)
Number only, in µM; omit the unit.

Ask: What IC50 value was documented for this compound, O=C1CCc2c(Oc3ccc4c(c3)[C@@H]3[C@H](O4)[C@H]3c3nc4ccc(C(F)(F)F)cc4[nH]3)ccnc2N1 [sesqui-maleate salt] ?
Reply: 4.8

====

Molecular target: UniProtKB P29317
Sequence (P29317 24-976): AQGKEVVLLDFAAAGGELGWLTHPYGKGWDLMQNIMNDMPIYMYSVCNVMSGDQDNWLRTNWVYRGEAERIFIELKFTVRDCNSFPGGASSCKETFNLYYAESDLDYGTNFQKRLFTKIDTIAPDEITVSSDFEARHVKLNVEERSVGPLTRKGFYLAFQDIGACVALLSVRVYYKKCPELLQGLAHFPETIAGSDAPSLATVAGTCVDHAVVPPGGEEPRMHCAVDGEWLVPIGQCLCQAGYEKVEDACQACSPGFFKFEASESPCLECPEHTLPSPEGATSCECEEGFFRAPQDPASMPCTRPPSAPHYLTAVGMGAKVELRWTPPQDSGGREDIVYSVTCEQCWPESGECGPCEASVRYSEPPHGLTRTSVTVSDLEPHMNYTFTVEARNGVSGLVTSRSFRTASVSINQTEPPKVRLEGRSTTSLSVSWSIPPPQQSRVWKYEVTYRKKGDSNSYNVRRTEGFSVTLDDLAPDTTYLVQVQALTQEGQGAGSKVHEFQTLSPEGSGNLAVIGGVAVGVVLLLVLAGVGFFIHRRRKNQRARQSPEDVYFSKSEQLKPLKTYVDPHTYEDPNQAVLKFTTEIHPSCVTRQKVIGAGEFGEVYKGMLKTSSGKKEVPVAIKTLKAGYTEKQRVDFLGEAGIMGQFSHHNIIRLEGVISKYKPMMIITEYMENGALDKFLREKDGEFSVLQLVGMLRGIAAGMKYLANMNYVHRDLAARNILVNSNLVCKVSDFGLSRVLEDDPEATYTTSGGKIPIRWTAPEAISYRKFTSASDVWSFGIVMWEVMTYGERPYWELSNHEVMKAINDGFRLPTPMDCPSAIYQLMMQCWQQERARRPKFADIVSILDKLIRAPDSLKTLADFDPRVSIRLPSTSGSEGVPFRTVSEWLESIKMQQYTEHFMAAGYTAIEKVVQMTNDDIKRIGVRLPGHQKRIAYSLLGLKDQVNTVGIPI
Counter-ions that a name gives are not always drawn.
observable: pIC50
The scale used: pIC50 is minus the common logarithm of the concentration in molar units.

Ask: Which pIC50 is reported with UniProtKB P29317 for this entry: O=C1CCc2c(Oc3ccc4c(c3)[C@@H]3[C@H](O4)[C@H]3c3nc4ccc(C(F)(F)F)cc4[nH]3)ccnc2N1 [sesqui-maleate salt] ?
Reply: 7.21

====

Experiment: pharmacokinetic study (LC-MS/MS)
Format: in vivo, beagle dogs
Details: beagle, dog, in vivo, po; dogs
Counter-ions that a name gives are not always drawn.
observable: bioavailability

Ask: Entry O=C1CCc2c(Oc3ccc4c(c3)[C@@H]3[C@H](O4)[C@H]3c3nc4ccc(C(F)(F)F)cc4[nH]3)ccnc2N1 [sesqui-maleate salt] has what bioavailability?
Reply: 41 to 82%

====

System: Sk-Mel-28 cells
Assay: CellTiter-Glo luminescent cell viability assay
Type: cell-based
Settings: Homo sapiens, 72 h; Sk-Mel-28, BRAF V600E, 3-day exposure, N=2; read-out: Compound 1 EC50 (mean ± SD)
Counter-ions that a name gives are not always drawn.
observable: EC50 (nM)
Lab book: enter the figure in nM, no units written.

Ask: // returns reported EC50 for input O=C1CCc2c(Oc3ccc4c(c3)[C@@H]3[C@H](O4)[C@H]3c3nc4ccc(C(F)(F)F)cc4[nH]3)ccnc2N1 [sesqui-maleate salt]
Reply: 251

====

Molecular target: HER2 (aa676-1255) (Homo sapiens)
Construct: HER2 (aa676-1255, recombinant protein purified from insect expression system)
Sequence (P04626 676-1255): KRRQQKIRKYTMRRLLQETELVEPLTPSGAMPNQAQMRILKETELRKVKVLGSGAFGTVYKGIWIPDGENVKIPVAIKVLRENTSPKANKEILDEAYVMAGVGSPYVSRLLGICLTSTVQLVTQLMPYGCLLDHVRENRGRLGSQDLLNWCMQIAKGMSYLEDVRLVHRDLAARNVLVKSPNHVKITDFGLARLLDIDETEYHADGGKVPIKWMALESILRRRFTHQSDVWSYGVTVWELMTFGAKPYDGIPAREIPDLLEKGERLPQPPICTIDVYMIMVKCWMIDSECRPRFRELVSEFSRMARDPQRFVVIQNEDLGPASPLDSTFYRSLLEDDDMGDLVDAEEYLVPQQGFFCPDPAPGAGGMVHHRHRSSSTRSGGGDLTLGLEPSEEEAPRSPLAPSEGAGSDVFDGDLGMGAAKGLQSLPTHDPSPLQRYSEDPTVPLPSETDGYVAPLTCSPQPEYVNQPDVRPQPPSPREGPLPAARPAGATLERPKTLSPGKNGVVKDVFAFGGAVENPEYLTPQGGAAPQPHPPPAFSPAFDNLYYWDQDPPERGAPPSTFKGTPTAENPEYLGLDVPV
Experiment: HTRF KinEASE-TK kinase assay
Conditions: ATP at KM
Protocol: Crystalline Form A* of Compound 1 Sesqui-Maleate was tested against recombinant EGFR/EPHA2/BTK (from Carna Biosciences), ITK/TEC/SRC/PDGFR-beta/TXK/FLT3/VEGFR2/RET (from Life Technologies), and HER2 (aa676-1255, recombinant protein purified from insect expression system) in HTRF KinEASE-TK assay from Cisbio Bioassays according to the manufacturer's instructions. […]
Counter-ions that a name gives are not always drawn.
observable: pIC50
pIC50 here is simply -log10 of the concentration when that concentration is written in mol/L.

Ask: Item under review: O=C1CCc2c(Oc3ccc4c(c3)[C@@H]3[C@H](O4)[C@H]3c3nc4ccc(C(F)(F)F)cc4[nH]3)ccnc2N1 [sesqui-maleate salt] . Reported pIC50?
Reply: 5.59
